The measurements presented in this section are drawn from patent US20170275275A1.

# assayed target: Nav1.7 (or SCN9A) channel (Homo sapiens)
# assay procedure: Nav1.7 (hSCN9A) channel block, PatchXpress (PX) whole-cell electrophysiology in stably transfected HEK cells
# condition description: estimated IC50 from single point electrophysiology data; PatchXpress platform; HEK cells expressing hSCN9A; clamped at V1/2 of inactivation; read-out: Nav1.7 EIC50
Where a name gives a salt, the structure may show the parent alone.
Reported pIC50 values for a set of compounds
Note on pIC50: it is the negative log10 of concentration, concentration in mol/L.

Prompt: Indicate its recorded pIC50; the compound in question is COCCOCCOCCOC(=O)NCc1cc(-c2cc(-c3cccc(C(F)(F)F)c3)ccc2Oc2ccc(S(=O)(=O)Nc3ncns3)cc2C#N)ccn1
Response: 8.47

Prompt: Indicate its recorded pIC50; the compound in question is O=S(=O)(Nc1nncs1)c1cc(Cl)c(Oc2ccc(-c3cccc(C(F)(F)F)c3)cc2-c2ccnc(CNCCC3CCNCC3)c2)cc1F [Example 6, bis-formate salt]
Response: 8.68

Prompt: Indicate its recorded pIC50; the compound in question is N#Cc1cc(S(=O)(=O)Nc2ncns2)ccc1Oc1ccc(-c2ccccc2)cc1-c1cccc(CNCCC2CCNCC2)c1 [Example 5, sodium salt]
Response: 8.82

Prompt: Indicate its recorded pIC50; the compound in question is N#Cc1cc(S(=O)(=O)Nc2ncns2)ccc1Oc1ccc(-c2cccc(C(F)(F)F)c2)cc1-c1ccnc(CN)c1 [Example 26, bis-formate salt]
Response: 9.30

Prompt: Indicate its recorded pIC50; the compound in question is COCCOCCOCCOCCOCc1cc(-c2cc(-c3cccc(C(F)(F)F)c3)ccc2Oc2ccc(S(=O)(=O)Nc3ncns3)cc2C#N)ccn1
Response: 7.89

###

# assay procedure: Aqueous solubility, shake-flask method
# Type: physicochemical
# condition description: aqueous buffer, thermodynamic from solid, pH 7.5, shaken 18 hours at room temperature
Where a name gives a salt, the structure may show the parent alone.
measured quantity: solubility at 18 h (µg/mL)
Write the number in µg/mL without appending the unit.

[
  {
    "molecule": "N#Cc1cc(S(=O)(=O)Nc2ncns2)ccc1Oc1ccc(-c2cccc(C(F)(F)F)c2)cc1-c1ccnc(CN)c1 [Example 26, bis-formate salt]",
    "solubility at 18 h (µg/mL)": 3
  }
]

Prompt: Indicate its recorded solubility at 18 h; the molecule in question is COCCOCCOCCOCCO[C@@H]1CCN(Cc2cc(-c3cc(-c4cccc(C(F)(F)F)c4)ccc3Oc3ccc(S(=O)(=O)Nc4ncns4)cc3C#N)ccn2)C1 [Example 21, trifluoroacetate salt]
Response: 56

Prompt: Indicate its recorded solubility at 18 h; the molecule in question is COCCOCCOCCOCCNCc1cc(-c2cc(-c3cccc(C(F)(F)F)c3)ccc2Oc2ccc(S(=O)(=O)Nc3ncns3)cc2C#N)ccn1
Response: 110

Prompt: Indicate its recorded solubility at 18 h; the molecule in question is COCCOCCOCCOCCOCCOCCOCCOCCOCCOCCOCCOCCNCc1cc(-c2cc(-c3cccc(C(F)(F)F)c3)ccc2Oc2ccc(S(=O)(=O)Nc3ncns3)cc2C#N)ccn1
Response: 612

###

Reported IC50 values for a set of compounds
# assayed target: Nav1.7 (or SCN9A) channel (Homo sapiens, UniProt Q15858)
# Sequence (Q15858 whole entry): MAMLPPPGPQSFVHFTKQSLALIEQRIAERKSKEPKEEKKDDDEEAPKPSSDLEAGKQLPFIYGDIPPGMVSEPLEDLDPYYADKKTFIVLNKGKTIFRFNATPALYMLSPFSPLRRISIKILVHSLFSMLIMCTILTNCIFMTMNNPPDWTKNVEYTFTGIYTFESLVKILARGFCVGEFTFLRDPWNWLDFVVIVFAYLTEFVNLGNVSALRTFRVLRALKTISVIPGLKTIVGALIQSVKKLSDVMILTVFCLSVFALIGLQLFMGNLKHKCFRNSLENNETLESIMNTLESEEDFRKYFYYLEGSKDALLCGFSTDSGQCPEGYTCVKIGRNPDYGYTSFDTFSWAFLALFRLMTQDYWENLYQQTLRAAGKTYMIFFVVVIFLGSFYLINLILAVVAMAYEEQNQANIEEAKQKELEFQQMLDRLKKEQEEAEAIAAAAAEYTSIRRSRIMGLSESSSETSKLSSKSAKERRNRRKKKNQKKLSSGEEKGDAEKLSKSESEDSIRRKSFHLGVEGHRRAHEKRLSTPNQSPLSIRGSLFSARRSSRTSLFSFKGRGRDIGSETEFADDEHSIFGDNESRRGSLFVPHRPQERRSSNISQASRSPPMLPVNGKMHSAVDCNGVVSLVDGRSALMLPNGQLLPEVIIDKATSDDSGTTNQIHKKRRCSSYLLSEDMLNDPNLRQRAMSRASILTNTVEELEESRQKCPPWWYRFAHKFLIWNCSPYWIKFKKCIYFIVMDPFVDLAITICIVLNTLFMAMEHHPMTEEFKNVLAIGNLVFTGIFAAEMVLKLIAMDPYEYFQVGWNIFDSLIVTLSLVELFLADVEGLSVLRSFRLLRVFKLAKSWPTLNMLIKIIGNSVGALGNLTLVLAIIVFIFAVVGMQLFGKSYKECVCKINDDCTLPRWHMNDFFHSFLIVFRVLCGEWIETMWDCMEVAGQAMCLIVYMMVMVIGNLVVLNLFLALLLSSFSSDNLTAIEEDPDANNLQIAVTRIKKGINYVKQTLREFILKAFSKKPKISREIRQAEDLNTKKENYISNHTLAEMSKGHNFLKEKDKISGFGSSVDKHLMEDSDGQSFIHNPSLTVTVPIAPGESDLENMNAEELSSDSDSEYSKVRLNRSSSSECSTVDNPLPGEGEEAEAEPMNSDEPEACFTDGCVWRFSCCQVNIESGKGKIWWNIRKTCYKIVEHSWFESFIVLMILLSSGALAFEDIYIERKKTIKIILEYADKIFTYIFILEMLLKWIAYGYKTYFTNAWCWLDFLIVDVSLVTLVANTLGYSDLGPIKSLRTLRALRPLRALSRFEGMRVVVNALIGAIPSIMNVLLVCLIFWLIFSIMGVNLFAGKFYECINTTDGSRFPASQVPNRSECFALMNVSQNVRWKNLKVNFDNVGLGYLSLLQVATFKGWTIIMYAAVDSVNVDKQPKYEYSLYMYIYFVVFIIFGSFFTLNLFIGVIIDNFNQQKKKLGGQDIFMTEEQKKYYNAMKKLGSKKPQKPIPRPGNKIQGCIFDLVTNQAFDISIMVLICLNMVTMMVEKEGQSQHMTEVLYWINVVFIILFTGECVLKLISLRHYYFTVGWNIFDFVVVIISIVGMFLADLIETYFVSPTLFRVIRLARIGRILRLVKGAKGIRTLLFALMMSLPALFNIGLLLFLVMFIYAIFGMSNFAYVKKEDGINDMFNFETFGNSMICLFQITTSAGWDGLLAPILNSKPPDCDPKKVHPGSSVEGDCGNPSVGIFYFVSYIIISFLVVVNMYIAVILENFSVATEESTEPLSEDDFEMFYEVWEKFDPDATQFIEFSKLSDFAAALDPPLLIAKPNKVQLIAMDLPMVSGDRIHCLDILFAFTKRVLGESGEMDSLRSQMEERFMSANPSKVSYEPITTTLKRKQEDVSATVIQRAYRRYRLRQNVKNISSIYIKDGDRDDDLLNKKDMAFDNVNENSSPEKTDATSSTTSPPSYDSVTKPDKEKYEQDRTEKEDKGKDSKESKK
# assay procedure: Nav1.7 (hSCN9A) channel block, PatchXpress (PX) whole-cell electrophysiology in stably transfected HEK cells
# condition description: estimated IC50 from single point electrophysiology data; PatchXpress platform; HEK cells expressing hSCN9A; clamped at V1/2 of inactivation; read-out: Nav1.7 EIC50
Structures can show the parent of a compound that is named as a salt.
Write the number in nM without appending the unit.

Worked examples, 3 compounds total:
[
  {
    "compound": "COCCOCCOCCOCCNC(=O)NCc1cc(-c2cc(-c3cccc(C(F)(F)F)c3)ccc2Oc2ccc(S(=O)(=O)Nc3ncns3)cc2C#N)ccn1 [Example 9]",
    "reported value": 10.9
  },
  {
    "compound": "COCCOCCOCCOCCNCCOCc1cc(-c2cc(-c3cccc(C(F)(F)F)c3)ccc2Oc2ccc(S(=O)(=O)Nc3ncns3)cc2C#N)ccn1 [Example 10]",
    "reported value": 4.7
  },
  {
    "compound": "COCCOCCOCCOCCOCCOCCOCCOCCOCCOCCOCCOCCC(=O)N1CCC(CCNCc2cccc(-c3cc(-c4ccccc4)ccc3Oc3ccc(S(=O)(=O)Nc4ncns4)cc3C#N)c2)CC1 [Example 31]",
    "reported value": 9.8
  }
]

Prompt: Indicate its recorded IC50; the compound in question is NCc1cc(-c2cc(-c3cccc(C(F)(F)F)c3)ccc2Oc2cc(F)c(S(=O)(=O)Nc3cscn3)cc2Cl)ccn1 [Example 29, dihydrochloride salt]
Response: 2.9

Prompt: Indicate its recorded IC50; the compound in question is COCCOCCOCCOCCO[C@H]1CCN(Cc2cc(-c3cc(-c4cccc(C(F)(F)F)c4)ccc3Oc3ccc(S(=O)(=O)Nc4ncns4)cc3C#N)ccn2)C1 [Example 22, hemi-trifluoroacetate salt]
Response: 2.6
